All figures here come from patent US4560758A.

- System: murine marcophage cells
- TEST SUMMARY: Chemotaxis assay (migration of macrophages toward complement-derived chemoattractant)
- Format: cell-based
- TEST PARAMETERS: 10^-7 m
Structures can show the parent of a compound that is named as a salt.
QUANTITY KIND: Percent Inhibition (-) or Enhancement (+) of migration (%)
Note: unit % is implicit; provide only the numeric part.

Report measured Percent Inhibition (-) or Enhancement (+) of migration on murine marcophage cells; entry: COc1ccc(CSC2CCN3CC(c4ccccc4)N=C23)cc1 (centres unmarked) [Example 3, hydrochloride]
-64.5

Enter recorded Percent Inhibition (-) or Enhancement (+) of migration with murine marcophage cells for CSC1CCN2CC(c3ccccc3)N=C12 (centres unmarked) [Example 1, hydrochloride] here.
-8.8

Retrieve Percent Inhibition (-) or Enhancement (+) of migration on murine marcophage cells; query CSC1CCCN2CC(c3ccccc3)N=C12 (centres unmarked) [Example 10, hydrochloride]
-94.4

Recall the reported Percent Inhibition (-) or Enhancement (+) of migration of c1ccc(CSC2CCCN3CC(c4ccccc4)N=C23)cc1 (centres unmarked) [Example 14] when tested on murine marcophage cells.
-51.0
